# METHOD NOTES: method code SF, from DOI: 10.1016/j.ejps.2012.10.019, PMID: 23131797
# CONDITION SET: pH 5.0
METRIC NAME: logD
Write the number on its own, no unit after it.

Query string: Given the entry CN(C(=O)c1c(F)c(F)c(F)c(F)c1F)C(C)(C)C , report its measured logD.
Result string: 3.45

Query string: Given the entry O=C(Cn1cc(C(F)(F)F)cc(Cl)c1=O)N1CCN(C(=O)c2ccco2)CC1 , report its measured logD.
Result string: 2.27

Query string: Given the entry Cc1ccc(C)c(S(=O)(=O)N(C)c2ccc(OC(=O)c3ccc4c(c3)OCO4)cc2)c1 , report its measured logD.
Result string: 5.87

Query string: Given the entry N#CCc1nc(-c2ccc3c(c2)OCCCO3)cs1 , report its measured logD.
Result string: 2.68

Query string: Given the entry COc1ccc(C=O)cc1COc1c(F)c(F)cc(F)c1F , report its measured logD.
Result string: 4.24

---

# CONDITION SET: pH 5.0
Returns: string. Value is 1.0 if measured logD is below 5, and 0.0 if it is greater than or equal to it.

Query string: Field: below-cutoff. Rule: recorded logD strictly less than 5. Subject: CCOC(=O)C1=C(C)OC(N)=C(C#N)[C@H]1c1cccc(I)c1
Result string: 1.0

Query string: Field: below-cutoff. Rule: recorded logD strictly less than 5. Subject: CCC[C@@H]1C(=O)C[C@H](C(C)C)C(C#N)(C#N)C1(C#N)C#N
Result string: 1.0

Query string: Field: below-cutoff. Rule: recorded logD strictly less than 5. Subject: COC(=O)c1c(NC(=O)Cn2nc(C)c([N+](=O)[O-])c2C)sc2c1CC[C@H](C(C)(C)C)C2
Result string: 0.0

Query string: Field: below-cutoff. Rule: recorded logD strictly less than 5. Subject: COc1cc(/C=C/C(=O)N[C@H]2CCCc3ccccc32)cc(OC)c1OC
Result string: 1.0

Query string: Field: below-cutoff. Rule: recorded logD strictly less than 5. Subject: O=C(NCc1ccc(F)cc1)c1nn2c(c1Br)N[C@H](c1cccs1)C[C@H]2C(F)(F)F
Result string: 0.0

Query string: Field: below-cutoff. Rule: recorded logD strictly less than 5. Subject: Cc1cc(C(=O)CN2C(=O)[C@@H]3CC=CC[C@H]3C2=O)c(C)n1Cc1ccc2c(c1)OCO2
Result string: 1.0

Query string: Field: below-cutoff. Rule: recorded logD strictly less than 5. Subject: CCOc1cc(C(=O)Nc2ccc(OC)c(OC)c2)cc(OCC)c1OCC
Result string: 1.0

Query string: Field: below-cutoff. Rule: recorded logD strictly less than 5. Subject: COC(=O)c1cccc(NC(=O)c2ccc(C)cc2)c1
Result string: 1.0

Query string: Field: below-cutoff. Rule: recorded logD strictly less than 5. Subject: O=C(Nc1ccc(C(F)(F)F)cc1)[C@H]1CCc2ccccc2O1
Result string: 1.0

Query string: Field: below-cutoff. Rule: recorded logD strictly less than 5. Subject: C[C@@H](Sc1nnnn1-c1ccc(Cl)cc1)C(=O)NCC(=O)Nc1ccc(F)c(F)c1F
Result string: 1.0

Query string: Field: below-cutoff. Rule: recorded logD strictly less than 5. Subject: Cc1c(CN(C)C(=O)[C@@H](C)n2nc(C(F)F)c(Br)c2C)cnn1C
Result string: 1.0

Query string: Field: below-cutoff. Rule: recorded logD strictly less than 5. Subject: Cc1ccc(NC(=O)[C@@H]2CCCN2C(=O)OC(C)(C)C)cc1C
Result string: 1.0

Query string: Field: below-cutoff. Rule: recorded logD strictly less than 5. Subject: O=C(Nc1ccc2c(c1)OCO2)[C@@H]1COc2ccccc2O1
Result string: 1.0

Query string: Field: below-cutoff. Rule: recorded logD strictly less than 5. Subject: C[C@@]12CC[C@H]3C[C@]1(C#N)N(C(=O)c1cccc([N+](=O)[O-])c1)C[C@]32C
Result string: 1.0

Query string: Field: below-cutoff. Rule: recorded logD strictly less than 5. Subject: CN1C(=CC(=O)COC(=O)C(c2ccccc2)c2ccccc2)C(C)(C)c2ccccc21
Result string: 0.0

Query string: Field: below-cutoff. Rule: recorded logD strictly less than 5. Subject: C[C@@H](Oc1ccc(F)cc1F)C(=O)c1cn(-c2ccc(OC(F)(F)F)cc2)nn1
Result string: 0.0

Query string: Field: below-cutoff. Rule: recorded logD strictly less than 5. Subject: COc1ccc([C@@H]2[C@H]3C(=O)N(c4sc5c(c4C#N)CCCC5)C(=O)[C@@H]3ON2c2ccccc2C)cc1
Result string: 0.0

Query string: Field: below-cutoff. Rule: recorded logD strictly less than 5. Subject: N#C[C@@H](Cc1cccs1)c1ncc(C(F)(F)F)cc1Cl
Result string: 1.0

Query string: Field: below-cutoff. Rule: recorded logD strictly less than 5. Subject: CC(C)[C@H]1O[C@H]2CCCC[C@H]2C2=CCCC[C@H]21
Result string: 0.0

Query string: Field: below-cutoff. Rule: recorded logD strictly less than 5. Subject: O=C(/C=C/c1ccc2c(c1)OCO2)NCCCCNC(=O)/C=C/c1ccc2c(c1)OCO2
Result string: 1.0

Query string: Field: below-cutoff. Rule: recorded logD strictly less than 5. Subject: C[C@H](C(=O)NC1CCCC1)N(c1ccc(Cl)cc1)S(C)(=O)=O
Result string: 1.0

Query string: Field: below-cutoff. Rule: recorded logD strictly less than 5. Subject: FC(F)Oc1ccc(NC(=S)NC[C@@H]2CCCO2)cc1Cl
Result string: 1.0

Query string: Field: below-cutoff. Rule: recorded logD strictly less than 5. Subject: O=C1c2ccccc2C(=O)N1/N=C/c1cc([N+](=O)[O-])ccc1Cl
Result string: 1.0

Query string: Field: below-cutoff. Rule: recorded logD strictly less than 5. Subject: C[C@H]1C[C@H](NC(=S)NCc2csc3ccccc23)CC(C)(C)C1
Result string: 0.0

Query string: Field: below-cutoff. Rule: recorded logD strictly less than 5. Subject: CCN(CC)S(=O)(=O)c1ccc2nnn(OCC(=O)NC(c3ccccc3)c3ccccc3)c2c1
Result string: 1.0

Query string: Field: below-cutoff. Rule: recorded logD strictly less than 5. Subject: COC(=O)N[C@H](O)C(=O)c1ccccc1
Result string: 1.0

Query string: Field: below-cutoff. Rule: recorded logD strictly less than 5. Subject: CCCN(CCC)S(=O)(=O)c1ccc(C(=O)OCCN2C(=O)C3C4c5ccccc5C(c5ccccc54)C3C2=O)cc1 (stereo not given)
Result string: 1.0

Query string: Field: below-cutoff. Rule: recorded logD strictly less than 5. Subject: CCOC(=O)c1c(NC=C2C(=O)N(C)C(=O)N(C)C2=O)sc2c1CC[C@@H](CC)C2
Result string: 0.0

---

# METHOD NOTES: method code SF, from DOI: 10.1016/j.ejps.2012.10.019, PMID: 23131797
# CONDITION SET: pH 5.0
Hi there, I'd appreciate the recorded logD for every entry that follows.
Write the number on its own, no unit after it.

Query string: Given the entry CC(C)NC(=S)N1CCN(S(=O)(=O)c2cccc(C(F)(F)F)c2)CC1 , report its measured logD.
Result string: 3.9

Query string: Given the entry O=C(COC(=O)c1cccc(N2C(=O)c3ccccc3C2=O)c1)c1ccc(F)cc1 , report its measured logD.
Result string: 4.68

Query string: Given the entry COCCCNC(=O)c1ccccc1C(F)(F)F , report its measured logD.
Result string: 2

Query string: Given the entry COc1ccc(CCNC(=O)CSc2nc3c(c(=O)n(C)c(=O)n3C)n2Cc2ccccc2F)cc1OC , report its measured logD.
Result string: 4

Query string: Given the entry CCCn1c(=O)c(Br)cn(-c2ccccc2C)c1=O , report its measured logD.
Result string: 2.82

Query string: Given the entry Cc1cc2nsnc2c([N+](=O)[O-])c1C , report its measured logD.
Result string: 2.64

Query string: Given the entry COc1ccc(OCC(=O)N2CCN(C(=O)c3ccco3)CC2)cc1 , report its measured logD.
Result string: 2.76

Query string: Given the entry COc1ccc2c(C)c(C)c(=O)oc2c1C , report its measured logD.
Result string: 3.45

Query string: Given the entry CCOc1ccc(NC(=O)CSc2nc3ccsc3c(=O)n2-c2ccccc2)cc1 , report its measured logD.
Result string: 4.33

---

Hi there, I'd appreciate the recorded logD for every entry that follows.
# CONDITION SET: pH 2.0
Write the number on its own, no unit after it.

Query string: Given the entry O=S(=O)(/C=C/C=C/Sc1ccccc1)c1ccccc1 , report its measured logD.
Result string: 4.03

Query string: Given the entry CC(C)N(Cc1nnc(-c2ccc(Cl)cc2)o1)C(=O)[C@@H]1COc2ccccc2O1 , report its measured logD.
Result string: 4.09

Query string: Given the entry COc1ccccc1NC(=S)N[C@H](NC(=O)c1ccccc1C)C(Cl)(Cl)Cl , report its measured logD.
Result string: 3.95

Query string: Given the entry CC[C@@H](NS(=O)(=O)c1ccc(C)cc1)C(=O)Oc1ccc2c3c(c(=O)oc2c1)CCCC3 , report its measured logD.
Result string: 3.08
